settings: in acetone, 288.15 K
Property: solubility (mole fraction)

# input Fill blank: measured solubility (mole fraction) of the molecule `CC(=O)Oc1ccc(C(c2ccc(OC(C)=O)cc2)c2ccccn2)cc1` is ____.
# output 0.00212

---

settings: in 1,4-dioxane, 303.15 K
Property: solubility (mole fraction)
Output spec: single numeric token, no unit.

# input Fill blank: measured solubility (mole fraction) of the compound `CC(=O)Oc1ccc(C(c2ccc(OC(C)=O)cc2)c2ccccn2)cc1` is ____.
# output 0.00343

---

details: in ethanol, 283.15 K
Property: solubility (mole fraction)
Output spec: single numeric token, no unit.

# input Fill blank: measured solubility (mole fraction) of the compound `CC(=O)Oc1ccc(C(c2ccc(OC(C)=O)cc2)c2ccccn2)cc1` is ____.
# output 7.5e-05

---

details: in acetone, 303.15 K
Property: solubility (mole fraction)
Output spec: single numeric token, no unit.

# input Fill blank: measured solubility (mole fraction) of the compound `CC(=O)Oc1ccc(C(c2ccc(OC(C)=O)cc2)c2ccccn2)cc1` is ____.
# output 0.00318

---

details: in ethyl acetate, 278.15 K
Property: solubility (mole fraction)
Output spec: single numeric token, no unit.

# input Fill blank: measured solubility (mole fraction) of the compound `CC(=O)Oc1ccc(C(c2ccc(OC(C)=O)cc2)c2ccccn2)cc1` is ____.
# output 0.000884
